The values you see were collected from patent US20250195685A1.

# system_name: T1, human CD8αα homodimer, recombinant protein (Acro Biosystems) (human, UniProt P01732 22-182)
# T1 construct: also called CD8αα antigen; biotinylated CD8α recombinant protein (CDA-H82E3)
# assay_info: BLI, whole antibody

| binder | kon / M⁻¹ s⁻¹ |
| --- | --- |
| CBD1380 whole antibody (VH N55S of CBD1033), Fc-silenced human IgG1 (antibody, V domains shown) VH: QVQLVQSGAEVKKPGASVKVSCKASRYTFTDYNLHWVRQAPGQGLEWMGFIYPYSGGTGYAQKFQGRVTMTVDTSTSTAYMELSSLRSEDTAVYYCARDHRYNEGVSFDYWGQGTTVTVSS VL: DIQLTQSPSSLSASVGDRATITCRASESVDGFGNSFMNWYQQKPGKAPKLLIYLASNLESGVPSRFSGSGSGTDFTLTISSVQPEDFATYYCQQNNEDPYTFGQGTKLEIKR | 1.86e+06 |
| CBD1033 whole antibody, human IgG1 with Fc-silencing mutations L234A, L235A and P329A (CBD1033-hIgG1-LALAPA) (antibody, V domains shown, On tLNPs the antibody was SATA-modified or AJICAP-thiolated (CBD1033.29) and conjugated to the LNP; also called CBD1033.3; CBD1033 IgG1) VH: QVQLVQSGAEVKKPGASVKVSCKASRYTFTDYNLHWVRQAPGQGLEWMGFIYPYNGGTGYAQKFQGRVTMTVDTSTSTAYMELSSLRSEDTAVYYCARDHRYNEGVSFDYWGQGTTVTVSS VL: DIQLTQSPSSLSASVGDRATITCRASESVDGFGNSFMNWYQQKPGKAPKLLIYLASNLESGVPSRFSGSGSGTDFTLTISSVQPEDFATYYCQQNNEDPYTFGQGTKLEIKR | 1.85e+06 |
| CBD1383 whole antibody (VH N55D of CBD1033, deamidation mimic), Fc-silenced human IgG1 (antibody, V domains shown, also called 100% deamidation mimic) VH: QVQLVQSGAEVKKPGASVKVSCKASRYTFTDYNLHWVRQAPGQGLEWMGFIYPYDGGTGYAQKFQGRVTMTVDTSTSTAYMELSSLRSEDTAVYYCARDHRYNEGVSFDYWGQGTTVTVSS VL: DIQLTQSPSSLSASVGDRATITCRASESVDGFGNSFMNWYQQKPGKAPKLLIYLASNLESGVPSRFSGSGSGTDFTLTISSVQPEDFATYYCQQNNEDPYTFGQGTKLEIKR | 1.1e+06 |
